assay: gradient 5% acetonitrile 3 min, to 50% in 2 min, to 85% in 15 min, held 3 min, 100 µL/min; conditions: column: Zorbax Extend-C18 2.1 x 50 mm; eluents: water / acetonitrile, 0.1% formic acid
// reported RP-LC retention time for each item listed
Please state the value followed by its unit.

Solved entries (count: 3):
Cc1nc(-c2ccc(-c3noc(C(C)NC(=O)c4ccccc4)n3)cc2)cs1 (stereo unspecified) :: 963 s
Cc1ccc(-c2cc(C(=O)N3CCN(C4CCN(C)CC4)CC3)n(C)c2)cc1 :: 590 s
Cc1cc(NC(=O)C2CCCN(c3nnc4ccccn34)C2)ccc1F (stereo unspecified) :: 717 s

State the recorded RP-LC retention time for this entry: CCOC(=O)c1c(S(=O)(=O)N2CCC(C(=O)Nc3ccccc3OC)CC2)c(C)n(C)c1C
850 s

Fill blank: measured RP-LC retention time of the molecule COCCCNC(=O)c1ccc2c(c1)N(Cc1ccccc1)C(=O)CO2 is ____.
732 s

###

test: gradient 5% acetonitrile 3 min, to 50% in 2 min, to 85% in 15 min, held 3 min, 100 µL/min; conditions: column: Zorbax Extend-C18 2.1 x 50 mm; eluents: water / acetonitrile, 0.1% formic acid
MEASURED_METRIC: RP-LC retention time
The answer should read as a number with its unit following.

# example entries with known answers
COc1cccc(S(=O)(=O)N2CCC(c3noc(-c4cccnc4)n3)C2)c1 (stereo not drawn) :: 846 s
CCC(=O)Nc1ccc(CCc2nc3ccc(C(=O)NCc4ccco4)cc3[nH]2)cc1 :: 597 s
CN1C(=O)C2(CCN(C(=O)Nc3ccccc3)C2)c2ccccc21 (stereo not drawn) :: 764 s
O=C(CN1C(=O)CCC1=O)Nc1ncc(S(=O)(=O)c2ccc([N+](=O)[O-])cc2)s1 :: 706 s
CCSC1=NCCN1C(=O)C(C)(C)Oc1ccc(Cl)cc1 :: 770 s

Could you share which RP-LC retention time value was measured for COCCNc1c(-c2ccccc2)nc2sc(C(=O)N3CCN(C)CC3)c(C)n12 ?
601 s

Which measured RP-LC retention time value corresponds to Cc1ccc(-c2nnc(SCc3noc(CCC(=O)Nc4nccs4)n3)o2)cc1 ?
816 s

# lookup: RP-LC retention time of CCCN(C(=O)Nc1ccccc1C(=O)OCC)c1nc(-c2ccc(C3CCCCC3)cc2)cs1
630 s

###

experiment: gradient 5% acetonitrile 3 min, to 50% in 2 min, to 85% in 15 min, held 3 min, 100 µL/min; details: column: Zorbax Extend-C18 2.1 x 50 mm; eluents: water / acetonitrile, 0.1% formic acid
Below, each entry is listed with its recorded RP-LC retention time.
Kindly provide the numeric value in s only, without the unit symbol.

The examples below pair each entry with its known result.
CCc1nnc2ccc(NC3CC3)nn12 :: 657
CCOc1ncccc1CNC(=O)Cc1ccsc1 :: 771
CCn1cnnc1C1CCCCN1S(=O)(=O)c1ccc(C#N)cc1 (centres undefined) :: 695

Consider the additional compound presented here.
Endpoint output: RP-LC retention time of CCc1noc([C@@H]2CC(F)(F)CN2C(=O)c2nccn2C)n1 . Value?
744

###

test: gradient 5% acetonitrile 3 min, to 50% in 2 min, to 85% in 15 min, held 3 min, 100 µL/min; conditions: column: Zorbax Extend-C18 2.1 x 50 mm; eluents: water / acetonitrile, 0.1% formic acid
Listed here: items and their measured RP-LC retention time.
Lab book: enter the figure in s, no units written.

Item under review: O=C(Cn1nc2c3cc(-c4ccccc4)nn3ccn2c1=O)Nc1ccccc1Cl . Reported RP-LC retention time?
902

Return reported RP-LC retention time; argument: Cc1cc(C(=O)N2CCN(c3ccccc3Cl)CC2)nc2ccnn12
875

Fill blank: measured RP-LC retention time of the compound Cn1c(=O)n(C)c2cc(S(=O)(=O)c3ccc(F)cc3)c(NC(=O)c3ccccc3)cc21 is ____.
885

###

test: gradient 5% acetonitrile 3 min, to 50% in 2 min, to 85% in 15 min, held 3 min, 100 µL/min; settings: column: Zorbax Extend-C18 2.1 x 50 mm; eluents: water / acetonitrile, 0.1% formic acid
Criterion: RP-LC retention time strictly less than 800 s. Met: y. Not met: n.

O=C1CC(c2noc(-c3ccc(-c4ccccc4)cc3)n2)CN1c1ccc(F)cc1 (configuration not stated) :: n

Would you kindly verify if RP-LC retention time of CCc1cccc(C)c1NC(=O)Cn1cnc2c(sc3nc(-c4ccccc4)ccc32)c1=O is strictly less than 800 s?
n

State whether 800 s exceeds RP-LC retention time recorded for O=C(C1CCCO1)N1CC2CN(S(=O)(=O)c3cccc(F)c3)CC(C1)O2 (configuration not stated) .
y

Here's an entry: CCNC(=O)CCc1nc2ccccc2n(CC(=O)Nc2ccccc2OCC)c1=O . Is its RP-LC retention time below 800 s?
y

In plain terms, does CCOC(=O)C1=C(C)NC(=O)NC1c1cn(-c2ccccc2)nc1-c1ccc(OC)cc1 (configuration not stated) come in under 800 s for RP-LC retention time?
n

# check: RP-LC retention time < 800 s for Cc1nnc(SCC(=O)Nc2nc(-c3ccccc3)ns2)s1
n

Given the entry O=C(NCCn1c(-c2ccncc2)nc2cccnc21)Nc1ccccc1Cl , would its reported RP-LC retention time be below 800 s?
y

Is the reported RP-LC retention time for Cc1nn(CC(=O)NCCC(C)C)c(=O)c2c(-n3cccc3)n(-c3ccc(Cl)cc3)nc12 strictly below 800 s?
n

Consider CCN1CCCn2cc(S(=O)(=O)NCc3ccc(F)cc3Cl)cc2C1=O . Does its RP-LC retention time lie strictly below 800 s?
y

Please let me know if Cc1sc(NC(=O)Cc2nn(C)c(=O)c3ccccc23)nc1-c1ccc(Cl)cc1 shows RP-LC retention time below 800 s.
n

Please state whether RP-LC retention time is below 800 s for COCc1c(C(=O)O)nnn1-c1ccc(OC)c(Cl)c1
y

###

Recorded RP-LC retention time, one value per entry.
assay: gradient 5% acetonitrile 3 min, to 50% in 2 min, to 85% in 15 min, held 3 min, 100 µL/min; details: column: Zorbax Extend-C18 2.1 x 50 mm; eluents: water / acetonitrile, 0.1% formic acid
Give the value, in units of s, as a plain number.

Cc1cccc(CN2N=C(C(=O)N3CCOCC3)S(=O)(=O)c3ccc(C)cc32)c1 :: 835
CN1C(=O)c2cc(C(=O)NCc3ccccc3Cl)nn2CC1(C)C(=O)NCc1ccccc1 (stereo not given) :: 789
CC(C)CCCC(C)N (stereo not given) :: 641

Lab note: next compound to report on.
Which value of RP-LC retention time has been reported for Cc1ccn2c(NC(=O)c3cccc(Cl)c3)c(-c3ccccc3)nc2c1 in the records?
682

###

assay: gradient 5% acetonitrile 3 min, to 50% in 2 min, to 85% in 15 min, held 3 min, 100 µL/min; conditions: column: Zorbax Extend-C18 2.1 x 50 mm; eluents: water / acetonitrile, 0.1% formic acid
Quick list: RP-LC retention time per entry.
The answer is to be given in s; state only the numeric part.

Completed entries (count: 10):
COc1ccc(-n2c(=O)c(C(=O)Nc3cccc(Cl)c3)c(O)c3cccnc32)cc1 :: 1370
Cc1csc(C(=O)Nc2nnc(SCC(=O)Nc3cccnc3)s2)c1 :: 597
Cc1ccc(S(=O)(=O)c2ccc(C(=O)N3CCN(c4ccccn4)CC3)cn2)cc1C :: 658
CCc1ccccc1NC(=O)CSc1cc(N2CCN(c3ccccc3OC)CC2)ncn1 :: 1040
COc1cn(CC(=O)NCc2ccccc2Cl)c(CO)cc1=O :: 564
Cc1cc(=O)n2c(-c3cccc(NC(=O)Cc4cccs4)c3)csc2n1 :: 696
O=C(NCCn1c(-c2ccccc2)nc2cccnc21)Nc1ccc2c(c1)OCO2 :: 722
Cc1noc(-c2ccc(=O)n(Cc3cccc(C(F)(F)F)c3)c2)n1 :: 806
COc1ccc(OC)c2sc(NC(=O)c3cc(C)on3)nc12 :: 748
O=C(NCc1ccc(Cl)cc1)C1CCc2nc(N3CCOCC3)ncc2C1 (stereo unspecified) :: 704

Entry Cc1cccc(NC(=O)COc2cccc3c(=O)n(C)ccc23)c1 : reported RP-LC retention time = ?
798

Given the compound Cc1c(S(=O)(=O)NC2CCCc3ccccc32)cc(C(=O)N2CCCCC2)n1C (stereo unspecified) , what is its reported RP-LC retention time?
907

###

As shown below, each of these compounds has a reported RP-LC retention time value.
experiment: gradient 5% acetonitrile 3 min, to 50% in 2 min, to 85% in 15 min, held 3 min, 100 µL/min; conditions: column: Zorbax Extend-C18 2.1 x 50 mm; eluents: water / acetonitrile, 0.1% formic acid
Just the number please, in s, no unit attached.

O=C(Cn1ccc2cc(S(=O)(=O)N3CCCCCC3)ccc21)N1CCN(c2ccccn2)CC1 :: 707
Cn1c(=O)cc(SCC(=O)N2CCN(c3ccccn3)CC2)c2ccc(Cl)cc21 :: 639
COc1ccc(S(=O)(=O)NCc2cccnc2-c2cccc(C)c2)cc1 :: 695
Cc1cc(C)cc(C(=O)NC2CCN(c3ccccc3)C2=O)c1 (centres undefined) :: 862
CCOc1ccc(-c2nc(C3CC(=O)N(c4ccc(Cl)cc4)C3)no2)cc1 (centres undefined) :: 1130

Sample CNC(=O)C(=O)NCC1CCN(S(C)(=O)=O)CC1 — what was its RP-LC retention time?
541

So what's the measured RP-LC retention time for this one? O=C(N1CC(Oc2cccc(-c3nc(-c4ccccc4)no3)c2)C1)C1(c2ccccc2)CC1
1310

Could you tell me which RP-LC retention time is on file for Cc1ccc(-n2nc(N3CCCN(S(=O)(=O)c4ccc(Cl)cc4)CC3)ccc2=O)cc1 ?
935

So what does the record say about RP-LC retention time for O=C(NCCN1CCCCCC1)C1CCCN(c2ncc(-c3ccc(F)cc3)cn2)C1 (centres undefined) ?
715

I would be grateful if you could share the reported RP-LC retention time for O=C(NCC1(N2CCOCC2)CCOC1)Nc1ccccc1C(F)(F)F (centres undefined) .
596
